study.target: Adrenergic receptor alpha-1 (Rattus norvegicus, UniProt P15823+P23944+P43140)
Sequence (P15823 whole entry): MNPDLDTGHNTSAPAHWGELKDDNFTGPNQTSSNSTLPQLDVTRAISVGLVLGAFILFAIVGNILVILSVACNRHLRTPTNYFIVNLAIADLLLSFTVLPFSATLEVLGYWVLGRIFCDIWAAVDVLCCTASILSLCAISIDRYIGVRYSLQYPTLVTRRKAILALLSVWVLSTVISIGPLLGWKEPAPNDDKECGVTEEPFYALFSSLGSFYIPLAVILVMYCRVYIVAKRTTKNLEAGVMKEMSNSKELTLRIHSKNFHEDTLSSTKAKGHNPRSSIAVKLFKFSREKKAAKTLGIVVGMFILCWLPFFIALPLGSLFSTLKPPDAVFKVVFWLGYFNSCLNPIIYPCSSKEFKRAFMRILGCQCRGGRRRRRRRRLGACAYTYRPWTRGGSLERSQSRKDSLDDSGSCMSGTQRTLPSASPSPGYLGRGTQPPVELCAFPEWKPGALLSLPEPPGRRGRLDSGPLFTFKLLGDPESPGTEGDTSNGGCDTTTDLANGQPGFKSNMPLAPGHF
Sequence (P23944 whole entry): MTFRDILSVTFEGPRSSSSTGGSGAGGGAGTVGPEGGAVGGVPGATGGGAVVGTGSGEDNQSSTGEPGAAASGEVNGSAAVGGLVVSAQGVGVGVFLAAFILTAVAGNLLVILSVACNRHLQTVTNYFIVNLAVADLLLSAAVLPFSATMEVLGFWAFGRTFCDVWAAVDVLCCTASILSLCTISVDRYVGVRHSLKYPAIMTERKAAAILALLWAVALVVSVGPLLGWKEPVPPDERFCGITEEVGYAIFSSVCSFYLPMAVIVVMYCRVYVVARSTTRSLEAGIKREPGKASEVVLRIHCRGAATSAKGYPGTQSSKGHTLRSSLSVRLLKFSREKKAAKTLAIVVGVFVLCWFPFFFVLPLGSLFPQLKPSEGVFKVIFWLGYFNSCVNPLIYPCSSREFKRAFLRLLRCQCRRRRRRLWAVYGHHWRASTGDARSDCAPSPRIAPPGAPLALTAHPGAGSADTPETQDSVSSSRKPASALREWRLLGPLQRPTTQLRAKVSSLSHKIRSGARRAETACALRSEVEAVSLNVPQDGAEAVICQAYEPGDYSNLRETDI
Sequence (P43140 whole entry): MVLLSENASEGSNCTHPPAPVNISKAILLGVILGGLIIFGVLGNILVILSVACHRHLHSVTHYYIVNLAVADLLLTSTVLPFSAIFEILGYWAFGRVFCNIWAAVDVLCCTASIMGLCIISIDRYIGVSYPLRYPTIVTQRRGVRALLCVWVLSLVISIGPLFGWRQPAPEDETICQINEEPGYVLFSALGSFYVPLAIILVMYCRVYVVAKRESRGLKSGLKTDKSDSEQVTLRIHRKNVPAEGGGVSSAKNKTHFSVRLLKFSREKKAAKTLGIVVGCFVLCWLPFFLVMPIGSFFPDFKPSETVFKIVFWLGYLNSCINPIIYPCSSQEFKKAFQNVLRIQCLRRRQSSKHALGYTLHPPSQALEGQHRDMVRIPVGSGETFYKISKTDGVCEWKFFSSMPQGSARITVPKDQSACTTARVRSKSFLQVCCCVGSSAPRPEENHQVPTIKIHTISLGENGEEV
assay.remarks: In vitro binding affinity towards alpha-1 adrenergic receptor using radioligand [3H]prazosin
Assay type: protein assay
Assignment: determine reported Ki for the given compounds.

- compound: "Cl.Nc1cccc(N2CCN(CCCN3C(=O)C4CCCN4C3=O)CC2)c1 (stereo not drawn)"
  study.target: "Adrenergic receptor alpha-1 (Rattus norvegicus, UniProt P15823+P23944+P43140)"
  Ki: "> 1000 nM"
- compound: "CC(C)C(=O)Nc1cccc(N2CCN(CCCN3C(=O)C4CCCCN4C3=O)CC2)c1.Cl (stereo not drawn)"
  study.target: "Adrenergic receptor alpha-1 (Rattus norvegicus, UniProt P15823+P23944+P43140)"
  Ki: "> 10000 nM"
- compound: "CCS(=O)(=O)Nc1cccc(N2CCN(CCCCN3C(=O)C4CCCN4C3=O)CC2)c1.Cl (stereo not drawn)"
  study.target: "Adrenergic receptor alpha-1 (Rattus norvegicus, UniProt P15823+P23944+P43140)"
  Ki: "> 10000 nM"
- compound: "CCCNC(=O)c1ccccc1N1CCN(CCCN2C(=O)C3CCCN3C2=O)CC1.Cl (stereo not drawn)"
  study.target: "Adrenergic receptor alpha-1 (Rattus norvegicus, UniProt P15823+P23944+P43140)"
  Ki: "> 1000 nM"
- compound: "Cc1ccccc1N1CCN(CCCN2CC(=O)N3CCCC3C2=O)CC1.Cl (stereo not drawn)"
  study.target: "Adrenergic receptor alpha-1 (Rattus norvegicus, UniProt P15823+P23944+P43140)"
  Ki: "23 nM"
- compound: "CCCCOc1ccccc1N1CCN(CCCN2CC(=O)N3CCCCC3C2=O)CC1.Cl (stereo not drawn)"
  study.target: "Adrenergic receptor alpha-1 (Rattus norvegicus, UniProt P15823+P23944+P43140)"
  Ki: "79 nM"
- compound: "CCCNC(=O)c1ccccc1N1CCN(CCCCN2CC(=O)N3CCCC3C2=O)CC1.Cl (stereo not drawn)"
  study.target: "Adrenergic receptor alpha-1 (Rattus norvegicus, UniProt P15823+P23944+P43140)"
  Ki: "> 1000 nM"

[Q] Query for Adrenergic receptor alpha-1 (Rattus norvegicus, UniProt P15823+P23944+P43140): what Ki does the record show for CCCCOc1ccccc1N1CCN(CCCCN2CC(=O)N3CCCC3C2=O)CC1.Cl (stereo not drawn) ?
[A] 18 nM

* * *

System: 5-hydroxytryptamine receptor 1A (Rattus norvegicus) | Read-out: pKi
Sequence (P19327 whole entry): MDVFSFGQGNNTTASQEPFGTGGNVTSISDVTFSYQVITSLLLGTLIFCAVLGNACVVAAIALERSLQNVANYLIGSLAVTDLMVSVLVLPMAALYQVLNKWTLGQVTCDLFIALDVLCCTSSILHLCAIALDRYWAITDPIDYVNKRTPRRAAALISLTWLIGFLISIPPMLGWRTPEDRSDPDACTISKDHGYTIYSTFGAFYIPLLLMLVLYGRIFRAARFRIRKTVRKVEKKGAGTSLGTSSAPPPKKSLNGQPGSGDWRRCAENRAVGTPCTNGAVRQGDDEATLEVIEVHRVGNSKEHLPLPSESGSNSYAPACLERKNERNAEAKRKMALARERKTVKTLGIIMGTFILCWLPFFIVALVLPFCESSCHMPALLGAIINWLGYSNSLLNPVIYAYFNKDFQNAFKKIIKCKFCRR
Give bare numbers, as −log10 of the molar value.

Answered examples (6):
- molecule: "CCCOC(=O)c1ccccc1N1CCN(CCCN2C(=O)C3CCCCN3C2=O)CC1.Cl (centres undefined)"
  study.target: "5-hydroxytryptamine receptor 1A (Rattus norvegicus)"
  pKi: 7.22
- molecule: "Cl.N#Cc1ccccc1N1CCN(CCCN2C(=O)C3CCCCN3C2=O)CC1 (centres undefined)"
  study.target: "5-hydroxytryptamine receptor 1A (Rattus norvegicus)"
  pKi: 7.48
- molecule: "CCCOC(=O)c1ccccc1N1CCN(CCCCN2C(=O)C3CCCN3C2=O)CC1.Cl (centres undefined)"
  study.target: "5-hydroxytryptamine receptor 1A (Rattus norvegicus)"
  pKi: 8.41
- molecule: "Cc1ccccc1N1CCN(CCCCN2C(=O)C3CCCN3C2=O)CC1.Cl (centres undefined)"
  study.target: "5-hydroxytryptamine receptor 1A (Rattus norvegicus)"
  pKi: 7.80
- molecule: "COc1ccccc1N1CCN(CCCN2CC(=O)N3CCCCC3C2=O)CC1.Cl (centres undefined)"
  study.target: "5-hydroxytryptamine receptor 1A (Rattus norvegicus)"
  pKi: 6.90
- molecule: "Cl.N#Cc1ccccc1N1CCN(CCCCN2CC(=O)N3CCCCC3C2=O)CC1 (centres undefined)"
  study.target: "5-hydroxytryptamine receptor 1A (Rattus norvegicus)"
  pKi: 7.85

As a next step, examine the molecule that follows.
[Q] I would be grateful if you could share the reported pKi for Cc1ccccc1N1CCN(CCCN2C(=O)C3CCCCN3C2=O)CC1.Cl (centres undefined) .
[A] 6.87

* * *

study.target: Adrenergic receptor alpha-1 (Rattus norvegicus, UniProt P15823+P23944+P43140)
assay.remarks: In vitro binding affinity towards alpha-1 adrenergic receptor using radioligand [3H]prazosin
Type: protein assay
quantity.kind: Ki

Return reported Ki values for all items listed beneath this line.
1. CC(C)C(=O)Nc1cccc(N2CCN(CCCN3CC(=O)N4CCCC4C3=O)CC2)c1.Cl (stereo not given)
2. CCCNC(=O)c1ccccc1N1CCN(CCCCN2C(=O)C3CCCCN3C2=O)CC1.Cl (stereo not given)
3. CCCNC(=O)c1ccccc1N1CCN(CCCN2CC(=O)N3CCCCC3C2=O)CC1.Cl (stereo not given)
4. CC(C)C(=O)Nc1cccc(N2CCN(CCCCN3C(=O)C4CCCN4C3=O)CC2)c1.Cl (stereo not given)

[A]
> 1000 nM
> 1000 nM
> 1000 nM
> 10000 nM

[Q] Any idea what Ki was measured for CC(C)C(=O)Nc1cccc(N2CCN(CCCCN3CC(=O)N4CCCCC4C3=O)CC2)c1.Cl (stereo not given) ?
[A] > 10000 nM
